experimental_target: BRD4 domain 1 (Homo sapiens)
assay_method_text: Kd determination of inhibitors binding to BRD4 domain 1 (Epic label-free platform)
assay_context: direct binding to immobilized BRD4 domain 1; tripling dilution series from 20µM; about 1hr equilibrium; rounded to whole number; read-out: Epic Kd BRD41
Kd values by entry
Could you give me the number in nM? Just the number is fine.

// below: answered compounds
Cc1noc(C)c1-c1cc(S(=O)(=O)NC2CCCC2)c2cc(NCCN3CCCC3)c(=O)[nH]c2c1
881
Cc1noc(C)c1-c1cc(S(=O)(=O)NC2CC2)c2ccc(N3CCNCC3)nc2c1
1730
Cc1noc(C)c1-c1cc(S(=O)(=O)N[C@H]2C[C@@H](NC(=O)OC(C)(C)C)C2)c2cccnc2c1
16200
Cc1noc(C)c1-c1cc(S(=O)(=O)NC2(C)CCCC2)c2cccnc2c1
3550
Cc1noc(C)c1-c1cc(S(=O)(=O)NC2CCCC2)c2cc(NCCOCCO)c(=O)[nH]c2c1
705

## Input Given the entry Cc1noc(C)c1-c1cc(S(=O)(=O)NC2CCCC2)c2cc(-c3ccccn3)c(=O)[nH]c2c1 , report its measured Kd.
## Output 1450
